Assay system: PDE7 (Homo sapiens)
Sequence (Q13946 whole entry): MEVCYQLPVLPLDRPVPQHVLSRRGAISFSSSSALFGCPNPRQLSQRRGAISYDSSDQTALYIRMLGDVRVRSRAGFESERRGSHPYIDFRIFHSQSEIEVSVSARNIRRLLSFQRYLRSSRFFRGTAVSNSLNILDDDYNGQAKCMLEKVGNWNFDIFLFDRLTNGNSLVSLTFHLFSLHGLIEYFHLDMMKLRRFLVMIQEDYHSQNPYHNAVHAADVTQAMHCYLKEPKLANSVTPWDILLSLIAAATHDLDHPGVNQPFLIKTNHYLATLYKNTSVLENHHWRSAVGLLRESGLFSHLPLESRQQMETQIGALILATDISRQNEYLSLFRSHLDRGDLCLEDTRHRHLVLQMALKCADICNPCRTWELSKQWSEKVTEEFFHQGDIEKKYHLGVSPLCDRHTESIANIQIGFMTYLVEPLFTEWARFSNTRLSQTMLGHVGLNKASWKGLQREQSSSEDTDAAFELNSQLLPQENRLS
Measured parameter: IC50 (µM)
Give the number; µM is assumed, so skip it.

Request: So what does the record say about IC50 for CCOC(=O)c1cc(-c2ccccc2)n(-c2cccc([N+](=O)[O-])c2)c1C [Example 22] ?
Response: 10.6
